# subject.of.test: human jejunal NK2 receptor (Homo sapiens, UniProt P21452)
# Sequence (P21452 1-398): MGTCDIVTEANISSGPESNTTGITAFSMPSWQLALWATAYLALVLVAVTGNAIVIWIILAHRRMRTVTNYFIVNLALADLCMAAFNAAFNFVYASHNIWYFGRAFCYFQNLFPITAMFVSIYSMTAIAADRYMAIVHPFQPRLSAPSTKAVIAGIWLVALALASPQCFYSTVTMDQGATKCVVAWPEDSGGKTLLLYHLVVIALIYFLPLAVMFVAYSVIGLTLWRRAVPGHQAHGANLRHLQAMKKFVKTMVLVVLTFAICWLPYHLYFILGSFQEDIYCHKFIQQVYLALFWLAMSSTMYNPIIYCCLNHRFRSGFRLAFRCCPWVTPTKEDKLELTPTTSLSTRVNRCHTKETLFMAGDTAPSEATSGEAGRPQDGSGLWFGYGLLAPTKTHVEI
# experiment.description: Antagonism of iodinated tachykinin binding: NK2 receptor affinity in HSKR-1 cells (125 iodohistidyl-1-neurokinin A)
# study.conditions: HSKR-1 cells (mouse 3T3 fibroblasts expressing human jejunal NK2 receptor); 125I-neurokinin A 0.1 nM; 2 hr room temperature; mean of several experiments
pIC50: −log10 of the molar value.
// reported pIC50 per item

>  <smi>
COC(=O)[C@@H](NCCN[C@@H](Cc1ccccc1)C(=O)N(C)Cc1ccccc1)c1ccccc1

>  <pIC50>
5.33

$$$$
>  <smi>
COC(=O)[C@H](Cc1c[nH]c2ccccc12)NCCN[C@@H](Cc1ccc2ccccc2c1)C(=O)N(C)Cc1ccc(Cl)c(Cl)c1

>  <pIC50>
6.20

$$$$
>  <smi>
COC(=O)[C@@H](Cc1c[nH]c2ccccc12)NCCN[C@@H](Cc1ccccc1)C(=O)N(C)Cc1ccccc1

>  <pIC50>
6.67

$$$$
